Listed below: TGI values for each entry.
# Test system: SK-MEL-5 melanoma
# MEASUREMENT DESCRIPTION: NCI tumour cell line growth inhibition, 48 h

# COMPOUND, MEASURED METRIC, ASSAY RESULT
records = [
    ("CC(=O)c1cccc(-c2cccc(-c3ccn(CCN4CCOCC4)n3)c2)c1", "TGI", "> 20 µM"),
]

Exam item: // fetch TGI given entry `CCCCCCCCCCCCCC(=O)NCC(OCC)OCC`
Marked response: > 100 µM

Exam item: // fetch TGI given entry `NNC(=O)Cn1ccnn1`
Marked response: > 100 µM

Exam item: // fetch TGI given entry `COc1cc2oc(=O)cc(C)c2c(OC)c1OC(C)=O`
Marked response: > 100 µM

Exam item: // fetch TGI given entry `ClCc1ccc(C2OCCO2)cc1`
Marked response: > 55.5 µM

Exam item: // fetch TGI given entry CC1CN=C(c2ccc(CN3CCC(C4CCN(Cc5ccc(C6=NCC(C)N6)cc5)CC4)CC3)cc2)N1 (stereo unspecified)
Marked response: > 100 µM

* * *

Listed below: TGI values for each entry.
# Tested on: SNB-75 CNS
# MEASUREMENT DESCRIPTION: NCI tumour cell line growth inhibition, 48 h

Field: example entries. Status: answers known.
# MOLECULE, MEASURED METRIC, ASSAY RESULT
data = [
    ("Clc1ccc2ns[s+]c2c1", "TGI", "> 100 µM"),
    ("COC(=O)[C@@H]1C=C[C@H](NC(C)=O)C1", "TGI", "> 100 µM"),
    ("CCC[CH2][Sn]1([CH2]CCC)[O]C(=O)c2ccc(N)cc2[O]1", "TGI", "1.84 µM"),
    ("CNC(=O)N(CCC#N)CCCN(C(=O)N(C)C)c1ccccc1", "TGI", "> 100 µM"),
    ("Clc1ccc2c(c1)[nH]c1c2nc2sccn21", "TGI", "> 100 µM"),
]

Below: the item to evaluate.
Exam item: // fetch TGI given entry COc1cc2c3c(c1OC)C1(C=CC(=O)C=C1)CC3NCC2 (stereo unspecified)
Marked response: > 100 µM

* * *

# Tested on: OVCAR-5 ovarian
# MEASUREMENT DESCRIPTION: NCI tumour cell line growth inhibition, 48 h; in the data active = GI50 below about 0.43 µM; inactive = the rest
One label from this list, please: active, inactive

Please review the entries below; each comes with its answer.
# MOLECULE, QUALITATIVE LABEL
records = [
    ("COC(=O)[C@H]1[C@H]2C[C@@H]3c4[nH]c5cc(OC)ccc5c4CCN3C[C@H]2C[C@@H](OC(=O)/C=C/c2cc(OC)c(OC)c(OC)c2)[C@@H]1OC", "inactive"),
    ("C=C(C)[C@@H]1CC[C@]2(CO)CC[C@]3(C)[C@H](CC[C@@H]4[C@@](C)(CCCN)[C@H](C(=C)C)CC[C@]43C)[C@@H]12", "inactive"),
    ("CC1(C)[C@@H](OC(N)=O)C=C[C@]2(CO)[C@H]3CC[C@]4(C)[C@@H](c5ccc(=O)oc5)[C@@H](Cl)C[C@]4(O)C3=CC[C@@H]12", "active"),
]

Exam item: Per the records of this test, what outcome belongs to `Cc1nn(CNc2ccccc2C(F)(F)F)c(=S)n1/N=C/c1ccc(F)cc1` ?
Marked response: inactive

Exam item: Per the records of this test, what outcome belongs to `COc1ccc([C@@H](O)c2cc(-c3ncnc4cc(N5CCOCC5)ccc34)c(F)cc2Cl)nn1` ?
Marked response: inactive

Exam item: Per the records of this test, what outcome belongs to `COC(=O)c1cc(-c2ccc(OC)cc2)[nH]c1N/N=C/c1c(Cl)cccc1Cl` ?
Marked response: inactive

Exam item: Per the records of this test, what outcome belongs to CC12CC=CCC1CCC1C2CCC2(C)C(c3ccc(=O)oc3)CCC12O (configuration not stated) ?
Marked response: active

* * *

Listed below: TGI values for each entry.
# Tested on: UACC-257 melanoma
# MEASUREMENT DESCRIPTION: NCI tumour cell line growth inhibition, 48 h

# MOLECULE, TGI
records = [
    ("COc1cc(/C=C2\\CN(C(=O)CCN3CCC(=NO)CC3)C/C(=C\\c3cc(OC)c(OC)c(OC)c3)C2=O)cc(OC)c1OC", "2.44 µM"),
]

Below: the item to evaluate.
Exam item: Return reported TGI for target or system UACC-257 melanoma, item O=C1/C(=C/c2ccc(O)cc2)CCC1CNc1ccccc1 (stereo unspecified) .
Marked response: 30.6 µM

* * *

# Tested on: HCC-2998 colon
# MEASUREMENT DESCRIPTION: NCI tumour cell line growth inhibition, 48 h
Listed below: TGI values for each entry.

# COMPOUND, ASSAY RESULT
data = [
    ("Clc1ccc2ns[s+]c2c1", "> 100 µM"),
    ("CC(=O)c1cccc(-c2cccc(-c3ccn(CCN4CCOCC4)n3)c2)c1", "> 20 µM"),
    ("O=NN1CCCS1(=O)=O", "> 100 µM"),
    ("Cc1ccc(NC2=N/C(=C/c3ccco3)C(Cl)=N2)cc1", "> 49.7 µM"),
    ("CC(C(=O)O)c1ccc(-c2ccccc2)c(F)c1 (configuration not stated)", "> 100 µM"),
    ("COc1cc(/C=C2\\CN(C(=O)CCN3CCC(=NO)CC3)C/C(=C\\c3cc(OC)c(OC)c(OC)c3)C2=O)cc(OC)c1OC", "0.724 µM"),
    ("CC[C@]1(O)C[C@@H]2CN(CCc3c([nH]c4ccccc34)[C@@](C(=O)OC)(c3cc4c(cc3OC)N(C)[C@H]3[C@@](O)(C(N)=O)[C@H](O)[C@]5(CC)[C@@H]6C[C@@H]6CN6CC[C@]43[C@@H]65)C2)C1", "> 29 µM"),
    ("CCCCCCNC(=O)Oc1ccc(/C(=C(/C)Cc2ccc(OC)cc2)c2ccc(OCCN(C)C)cc2)cc1", "8.43 µM"),
    ("CCN(CCCl)c1cccc(NC(=O)c2ccc(C(=O)Nc3cccc(CN(C)C)c3)cc2)c1", "0.368 µM"),
    ("CNCCNc1nc2ccccc2c2c(=O)c3cc(F)ccc3sc12", "3.45 µM"),
]

Exam item: // fetch TGI given entry `CC1(C)[C@@H](OC(N)=O)C=C[C@]2(CO)[C@H]3CC[C@]4(C)[C@@H](c5ccc(=O)oc5)[C@@H](Cl)C[C@]4(O)C3=CC[C@@H]12`
Marked response: 0.0776 µM

Exam item: // fetch TGI given entry `O=c1c2cc(Br)ccc2ncn1COCc1ccccc1`
Marked response: > 100 µM

Exam item: // fetch TGI given entry `Cc1c(C#N)c(=N)oc2ccccc12`
Marked response: > 100 µM

* * *

Listed below: TGI values for each entry.
# Test system: SF-539 CNS
# MEASUREMENT DESCRIPTION: NCI tumour cell line growth inhibition, 48 h

Field: example entries. Status: answers known.
# COMPOUND, TGI
data = [
    ("CC(C)(Cc1ccccc1)N1C(=O)N1C(C)(C)Cc1ccccc1", "> 100 µM"),
    ("Nc1ccc2c(c1)NC(=O)[C@@H]1CCCN1C2=O", "> 100 µM"),
    ("O=c1cc(-c2ccccn2)[nH]c2cc(F)ccc12", "> 100 µM"),
]

Exam item: // fetch TGI given entry Cc1cn(CCOCCOC(=O)NC(CCCNC(N)=O)C(=O)O)c(=O)[nH]c1=O (stereo unspecified)
Marked response: > 100 µM

Exam item: // fetch TGI given entry `Cc1ccc(/C=N\NC(=O)c2ccncc2)s1`
Marked response: > 100 µM

Exam item: // fetch TGI given entry `COC(=O)[C@H]1N[C@@H](C(=O)OC)C23CCC[C@H]2CC[C@]1(C(OC)OC)C3`
Marked response: > 100 µM

Exam item: // fetch TGI given entry `ClCc1ccc(C2OCCO2)cc1`
Marked response: > 56.7 µM

Exam item: // fetch TGI given entry `CC(=O)NC(=O)NC1=NCCC(=O)N1CCc1c[nH]c2ccccc12`
Marked response: > 100 µM

Exam item: // fetch TGI given entry CC(=O)O[C@H]1CCC2[C@@H]3CCC4NC(=O)C(C#N)C[C@]4(C)C3CC[C@@]21C (stereo partly specified)
Marked response: > 10 µM

Exam item: // fetch TGI given entry `CCOC(=O)Cc1csc(N=Nc2c(O)[nH]c3ccccc23)n1`
Marked response: > 100 µM

* * *

# Test system: SR leukemia
# MEASUREMENT DESCRIPTION: NCI tumour cell line growth inhibition, 48 h
MEASURED METRIC: TGI

Field: example entries. Status: answers known.
# MOLECULE, TGI
records = [
    ("CC(C)(Cc1ccccc1)N1C(=O)N1C(C)(C)Cc1ccccc1", "> 100 µM"),
    ("Cc1nc(Nc2nc3ccccc3[nH]2)nc(Cl)c1CCCl", "> 100 µM"),
    ("N#Cc1c(C[n+]2ccccc2)c2ccccc2oc1=O", "> 100 µM"),
    ("O=C(O)CCSC1=NCCN1", "> 100 µM"),
    ("NC(=S)N/N=C1\\CCCC1C(O)(C(F)(F)Cl)C(F)(F)Cl (stereo unspecified)", "> 10 µM"),
]

Exam item: // fetch TGI given entry `CC1=NN2C(=N)/C(=C/c3ccccc3)C(=O)N=C2S1`
Marked response: > 100 µM

Exam item: // fetch TGI given entry `O=c1nc2ccc3sc4ccccc4c(=O)c3n2c(=O)[nH]1`
Marked response: > 100 µM

Exam item: // fetch TGI given entry COC(=O)/C=C1\C(=O)C=C2[C@@H]3C[C@H]4C[C@H](CC[C@@]4(C)N21)C3(C)NC(C)=O (stereo partly specified)
Marked response: 99.7 µM

Exam item: // fetch TGI given entry `Nc1ccc2c(c1)NC(=O)[C@@H]1CCCN1C2=O`
Marked response: > 100 µM

Exam item: // fetch TGI given entry `O=P(O)(O)C=C=C1CCCCC1`
Marked response: > 100 µM

Exam item: // fetch TGI given entry C=CCc1ccccc1C1CC2(C(=O)OC)OC1C(C(=O)OC)=C2C(=O)OC (stereo unspecified)
Marked response: > 10 µM
